# System: Escherichia coli NIHJ JC-2
# test details: MIC by agar-dilution method, Escherichia coli NIHJ JC-2
# Type: cell-based
# assay setup: NIHJJC2, read-out: MIC.
Where a name gives a salt, the structure may show the parent alone.
measurement type: MIC (µg/mL)
Give bare numbers, in µg/mL.

Here are 3 compounds together with their reported answers.
# compound, MIC, µg/mL
records = [
    ("CO/N=C(\\C(=O)NC1C(=O)N2C(C(=O)O)=C(/C=C\\c3scnc3Cl)CSC12)c1csc(N)n1 (stereo not shown) [Example 21, sodium salt]", 0.2),
    ("CO/N=C(\\C(=O)NC1C(=O)N2C(C(=O)O)=C(/C=C/c3scnc3C)CSC12)c1csc(N)n1 (stereo not shown)", 0.78),
    ("CO/N=C(\\C(=O)NC1C(=O)N2C(C(=O)O)=C(/C=C\\c3sc(Cl)nc3Cl)CSC12)c1csc(N)n1 (stereo not shown)", 3.13),
]

Quick batch: MIC for everything below.
1. CO/N=C(\C(=O)NC1C(=O)N2C(C(=O)O)=C(/C=C/c3cnc(C)s3)CSC12)c1csc(N)n1 (stereo not shown)
2. CO/N=C(\C(=O)NC1C(=O)N2C(C(=O)O)=C(/C=C\c3ccccc3)CSC12)c1csc(N)n1 (stereo not shown)
3. CO/N=C(\C(=O)NC1C(=O)N2C(C(=O)O)=C(/C=C\c3cscn3)CSC12)c1csc(N)n1 (stereo not shown)
4. CO/N=C(\C(=O)NC1C(=O)N2C(C(=O)O)=C(/C=C\c3scnc3C)CSC12)c1csc(N)n1 (stereo not shown)

A)
[0.78, 3.13, 1.56, 0.39]
